All values here come from patent US10072001B2.

assayed-target: TBK1 (Homo sapiens (Human))
Sequence (Q9UHD2 whole entry): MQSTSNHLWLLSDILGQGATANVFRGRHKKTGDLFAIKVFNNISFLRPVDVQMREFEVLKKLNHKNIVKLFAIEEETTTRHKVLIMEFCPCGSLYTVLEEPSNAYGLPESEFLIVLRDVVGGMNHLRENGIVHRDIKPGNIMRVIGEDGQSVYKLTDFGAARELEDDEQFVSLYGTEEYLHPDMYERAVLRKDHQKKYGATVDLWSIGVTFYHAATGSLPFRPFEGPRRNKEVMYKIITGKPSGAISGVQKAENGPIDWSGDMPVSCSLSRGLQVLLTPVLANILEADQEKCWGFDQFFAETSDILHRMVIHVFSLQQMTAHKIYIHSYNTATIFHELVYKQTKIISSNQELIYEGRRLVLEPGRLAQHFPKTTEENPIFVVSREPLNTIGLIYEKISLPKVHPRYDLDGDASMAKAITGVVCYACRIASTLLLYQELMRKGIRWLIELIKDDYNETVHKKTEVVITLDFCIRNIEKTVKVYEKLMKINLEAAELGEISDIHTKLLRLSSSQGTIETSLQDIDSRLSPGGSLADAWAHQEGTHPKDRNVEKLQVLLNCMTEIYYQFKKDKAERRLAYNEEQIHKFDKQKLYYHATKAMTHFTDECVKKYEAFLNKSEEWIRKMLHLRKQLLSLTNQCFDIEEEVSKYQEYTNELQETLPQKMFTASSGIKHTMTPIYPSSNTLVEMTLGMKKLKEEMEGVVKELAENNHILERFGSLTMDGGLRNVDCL
test-name: TR-FRET kinase assay, TBK1
assay-conditions: read-out: TBK1-IC50; full length recombinant TBK1 2.5 nM, 2x Km ATP, 1 μM peptide, 240 min at 25° C.; geometric mean of minimum four determinations
Recorded IC50 determines the group label, using lo (below 3 nM), mid (3 nM to below 20 nM), hi (20 nM or more)

INSERT INTO measurements (molecule, class_assignment) VALUES
  ('N#Cc1cc(-c2ccnc3[nH]c(C#CCO)cc23)ccc1OC1CCOCC1', 'hi'),
  ('N#Cc1cc(-c2ccnc3[nH]c(-c4ccc(N5CCOCC5)cc4)cc23)ccc1O[C@H]1CCN(C(=O)CO)C1', 'mid'),
  ('N#CCC(=O)N1CC[C@@H](Oc2ccc(-c3ccnc4[nH]c(-c5ccc(N6CCOCC6)cc5)nc34)cc2C#N)C1', 'mid'),
  ('N#Cc1cc(-c2ncnc3[nH]c(-c4ccc(N5CCOCC5)cc4)cc23)ccc1OC1CCOCC1', 'lo'),
  ('N#Cc1cc(-c2ccnc3[nH]c(-c4ccc(N5CCOCC5)cc4)cc23)ccc1N1CC(O)C1 [Example 52]', 'mid'),
  ('CC(C)Oc1ccc(-c2ccnc3[nH]c(-c4ccc(N5CCOCC5)cc4)cc23)cc1C#N', 'hi'),
  ('N#Cc1cc(-c2ncnc3[nH]c(-c4ccc(N5CCOCC5)nc4)nc23)ccc1OC1CCOCC1', 'mid'),
  ('CN(C)Cc1ccc(-c2nc3c(-c4ccc(OC5CCN(C(=O)C(F)F)CC5)c(C#N)c4)ncnc3[nH]2)cc1', 'hi'),
  ('COc1cc(-c2cc3c(-c4ccc(OC5CCN(C(=O)CO)CC5)c(C#N)c4)ncnc3[nH]2)ccc1N1CCOCC1', 'lo'),
  ('COC(=O)c1ccc(-c2cc3c(-c4ccc(OC5CCN(C(=O)CO)CC5)c(C#N)c4)ncnc3[nH]2)cc1', 'lo'),
  ('N#Cc1cc(-c2ncnc3[nH]c(-c4ccc(N5CCOCC5)cc4)cc23)ccc1CN1CCCC1=O', 'hi'),
  ('CN1CCN(c2ccc(-c3nc4c(-c5ccc(OC6CCN(C(=O)C(F)F)CC6)c(C#N)c5)ncnc4[nH]3)cc2)CC1', 'mid'),
  ('N#Cc1cc(-c2ccnc3[nH]c(-c4ccc(N5CCOCC5)cc4)nc23)ccc1OC1CCOCC1', 'mid'),
  ('N#Cc1cc(-c2ncnc3[nH]c(-c4ccc(OCCN5CCCC5)cc4)cc23)ccc1OCC1CC1', 'mid'),
  ('N#Cc1cc(-c2ccnc3[nH]c(-c4cnn(C5COC5)c4)cc23)ccc1OC1CCOCC1', 'mid');
